- tested-target: human tau(pS422) (Homo sapiens, UniProt P10636, S739X)
- assay: BIAcore kinetic screening and kinetic rates of humanized VH/VL combinations
- Type: binding
- test-conditions: 25 °C; VL17 or VL19 with VH variants
measured-attribute: kd (s⁻¹)
Numbers only, in s⁻¹.

Examples from the recorded data:
| molecule | kd / s⁻¹ |
| --- | --- |
| VL19 with VH24: anti-human tau(pS422) antibody; VH SEQ ID NO: 56, VL SEQ ID NO: 38 (antibody, V domains shown, humanized sequence) VH: EVQLLESGGGLVQPGGSLRLSCAASGFSLSSNAINWVRQAPGKGLEWVGYIAVSGNTYYADSVKGRFTISKDNSKNTVYLQMNSLRAEDTAVYYCGKSNIWGQGTLVTVSS VL: AQVMTQSPSSLSASVGDRVTITCRSSQSVRTNKLAWFQQKPGQPPKRLIYSASTLDFGVPSRFSGSGSGTEFTLTISSLQPEDFATYYCLGYFDCSIADCVAFGGGTKVEIK | 0.00063 |
| VL17 with VH22: anti-human tau(pS422) antibody; VH SEQ ID NO: 54, VL SEQ ID NO: 37 (antibody, V domains shown, humanized sequence) VH: EVQLLESGGGLVQPGGSLRLSCAASGFSLSSNAINWVRQAPGKGLEWVGYIAVSGNTYYADSVKGRFTISRDNSKNTLYLQMNSLRAEDTAVYYCGKSNIWGQGTLVTVSS VL: DIQMTQSPSSLSASVGDRVTITCRSSQSVRTNKLAWFQQKPGQPPKRLIYSASTLDFGVPSRFSGSGSGTEFTLTISSLQPEDFATYYCLGYFDCSIADCVAFGGGTKVEIK | 0.002 |
| VL17 with VH00: anti-human tau(pS422) antibody; VH SEQ ID NO: 11, VL SEQ ID NO: 37 (antibody, listed as Oryctolagus cuniculus, V domains shown, humanized sequence) VH: QSVEESGGRLVTPGTPLTLTCTVSGFSLSSNAINWVRQAPGKGLEWIGYIAVSGNTYYASWAKGRFTISKASTTVDLKMTSPTAEDTGTYFCGKSNIWGPGTLVTVSL VL: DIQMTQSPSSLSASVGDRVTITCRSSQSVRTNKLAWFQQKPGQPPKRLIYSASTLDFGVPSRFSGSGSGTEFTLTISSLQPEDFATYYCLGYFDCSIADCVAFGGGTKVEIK | 0.000498 |
| VL17 with VH02: anti-human tau(pS422) antibody; VH SEQ ID NO: 47, VL SEQ ID NO: 37 (antibody, V domains shown, humanized sequence) VH: QSVLESGGGLVQPGGSLRLSCAASGFSLSSNAINWVRQAPGKGLEWVGYIAVSGNTYYASWAKGRFTISRDNSKNTLYLQMNSLRAEDTAVYYCGKSNIWGPGTLVTVSS VL: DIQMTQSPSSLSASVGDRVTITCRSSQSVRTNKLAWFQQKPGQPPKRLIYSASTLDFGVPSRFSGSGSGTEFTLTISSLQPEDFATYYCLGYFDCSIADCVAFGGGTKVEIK | 0.00371 |
| VL19 with VH18: anti-human tau(pS422) antibody; VH SEQ ID NO: 52, VL SEQ ID NO: 38 (antibody, V domains shown, humanized sequence) VH: QQLVESGGGLVQPGGSLRLSCAASGFSLSSNAINWVRQAPGKGLEWVGYIAVSGNTYYADSVKGRFTISRDNSKNTLYLQMNSLRAEDTAVYYCGKSNIWGQGTLVTVSS VL: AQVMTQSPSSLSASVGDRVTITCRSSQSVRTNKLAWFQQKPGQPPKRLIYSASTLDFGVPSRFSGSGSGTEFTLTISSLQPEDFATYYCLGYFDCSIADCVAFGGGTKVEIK | 0.0019 |

Each of the following entries comes with a recorded value; kindly state kd for each.
1. VH14 with VL19: anti-human tau(pS422) antibody; VH SEQ ID NO: 50, VL SEQ ID NO: 38 (antibody, V domains shown, humanized sequence) VH: QQLVESGGGLVQPGGSLRLSCAASGFSLSSNAINWVRQAPGKGLEWVGYIAVSGNTYYASWAKGRFTISRDNSKNTLYLQMNSLRAEDTAVYYCGKSNIWGPGTLVTVSS VL: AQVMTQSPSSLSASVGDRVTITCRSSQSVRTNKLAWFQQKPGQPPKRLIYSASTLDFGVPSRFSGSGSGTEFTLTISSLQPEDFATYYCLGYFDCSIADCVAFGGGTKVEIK
2. VL17 with VH24: anti-human tau(pS422) antibody; VH SEQ ID NO: 56, VL SEQ ID NO: 37 (antibody, V domains shown, humanized sequence) VH: EVQLLESGGGLVQPGGSLRLSCAASGFSLSSNAINWVRQAPGKGLEWVGYIAVSGNTYYADSVKGRFTISKDNSKNTVYLQMNSLRAEDTAVYYCGKSNIWGQGTLVTVSS VL: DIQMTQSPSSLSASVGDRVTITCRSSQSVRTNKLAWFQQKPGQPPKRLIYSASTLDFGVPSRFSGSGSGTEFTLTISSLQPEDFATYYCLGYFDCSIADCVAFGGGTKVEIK

0.002
0.00079

Which kd value belongs to VL17 with VH15: anti-human tau(pS422) antibody; VH SEQ ID NO: 51, VL SEQ ID NO: 37 (antibody, V domains shown, humanized sequence) VH: QSVVESGGGLVQPGGSLRLSCAASGFSLSSNAINWVRQAPGKGLEWVGYIAVSGNTYYASWAKGRFTISRDNSKNTLYLQMNSLRAEDTAVYYCGKSNIWGPGTLVTVSS VL: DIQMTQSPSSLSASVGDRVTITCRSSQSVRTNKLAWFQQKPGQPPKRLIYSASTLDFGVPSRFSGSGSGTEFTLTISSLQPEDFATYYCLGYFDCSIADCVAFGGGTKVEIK ?
0.00326
